Biological target: T1, PUF4 RNA-binding domain (Saccharomyces cerevisiae, UniProt P25339 537-888)
T1 sequence: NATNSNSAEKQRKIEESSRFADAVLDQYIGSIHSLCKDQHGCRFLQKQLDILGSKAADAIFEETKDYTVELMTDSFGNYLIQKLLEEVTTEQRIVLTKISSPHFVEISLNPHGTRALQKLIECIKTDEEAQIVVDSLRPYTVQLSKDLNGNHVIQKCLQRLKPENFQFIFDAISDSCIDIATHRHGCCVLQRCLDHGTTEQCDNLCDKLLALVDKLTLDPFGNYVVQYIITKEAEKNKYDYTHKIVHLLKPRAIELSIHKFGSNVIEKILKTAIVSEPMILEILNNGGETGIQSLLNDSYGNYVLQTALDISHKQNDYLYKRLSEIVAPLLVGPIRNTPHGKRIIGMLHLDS
Experiment: Mg; RNA-MaP; 20 mM Na-HEPES pH 7.4, 30 mM KOAc, 0.75 mM MgCl2, 0.1% Tween-20, 5% glycerol, 0.1 mg/mL BSA, 2 mM DTT; 25 C; 0.0125-409.6 nM protein
Settings: tags: N-His6-TEV cleaved; C-SNAP kept, Cy3B-labelled; label: tethered on chip by stalled RNA polymerase
pKd: −log10 of the molar value.
readout: pKd

binder	result
ACAAACUGCUUUAUUAUUAACAAAC (ssRNA) [Ie_S3_P5E.1_K5.1_C5.1_H5.1_[+2CTT]_A5.1_F5.1_T5.1]	< 5.64
UCUCUUUGUACCGACCUCUCUU (ssRNA) [Ic_S1_P5E.1_K5.1_C5.1_H5.1_A5.1_[T5C]_[T6C]_[A7G]_F5.1_[T8A]_[T9C]_[A10C]_T5.1]	< 5.64
Ib_S4_P5E.1_K5.1_C5.1_H5.1_[G2T]_A5.1_[T5C]_F5.1_T5.1 (ssRNA) RNA: UUUGACAACUGAUCGUUCUUUCUUUUACUAUUAUUCUUUCUCGAUCAGUUGUCUUU	< 5.64
